These measurements were taken from ChEMBL document CHEMBL4828761.

Target or system 5-hydroxytryptamine receptor 6 (Homo sapiens, UniProt P50406); recorded quantity pKi.
Friendly reminder that pKi comes from taking -log10 of the concentration in mol/L.

Please look up its pKi: `CC(C)(C)OC(=O)N1CCC(CNCCOc2cccc3c2ccn3S(=O)(=O)c2ccccc2)CC1` 8.15

Give its pKi value. Item: `O=S(=O)(c1ccccc1)n1ccc2c(OCCNCc3ccc(Cl)cc3)cccc21` 7.80

Please report the recorded pKi for `O=S(=O)(c1ccccc1)n1ccc2c(OCCNCc3ccc(F)cc3)cccc21` . 8.22

# query: pKi of entry `Cc1cccc(CNCCOc2cccc3c2ccn3S(=O)(=O)c2cccc3ccccc23)c1` 7.92

What value of pKi has been reported for the following compound? `COC(=O)c1ccc(CNCCOc2cccc3c2ccn3S(=O)(=O)c2ccccc2)cc1` 7.89

Need pKi of `CN(C)c1cccc(CNCCOc2cccc3c2ccn3S(=O)(=O)c2ccccc2)c1` , thanks. 8.22

Reported pKi, compound `CCOc1ccc(CNCCOc2cccc3c2ccn3S(=O)(=O)c2ccccc2)cc1` : ____ 7.89

For the compound shown here, `Cc1cccc(CNCCOc2cccc3c2CCN3S(=O)(=O)c2ccccc2)c1` , give the reported pKi. 7.92
